Target: CDK4/Cyclin D1, full-length recombinant, N-terminal GST tag on both proteins (UniProt P11802 2-303; P24385 1-295)
Sequence (P11802 2-303, chain 1 of 2): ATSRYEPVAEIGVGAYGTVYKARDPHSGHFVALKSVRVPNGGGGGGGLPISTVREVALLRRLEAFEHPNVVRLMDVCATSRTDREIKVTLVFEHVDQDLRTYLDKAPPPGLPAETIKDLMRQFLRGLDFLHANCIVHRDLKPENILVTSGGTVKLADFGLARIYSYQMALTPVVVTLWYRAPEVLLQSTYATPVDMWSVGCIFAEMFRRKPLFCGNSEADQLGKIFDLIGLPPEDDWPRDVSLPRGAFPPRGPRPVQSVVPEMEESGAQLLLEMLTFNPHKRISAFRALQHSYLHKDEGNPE
Sequence (P24385 whole entry, chain 2 of 2): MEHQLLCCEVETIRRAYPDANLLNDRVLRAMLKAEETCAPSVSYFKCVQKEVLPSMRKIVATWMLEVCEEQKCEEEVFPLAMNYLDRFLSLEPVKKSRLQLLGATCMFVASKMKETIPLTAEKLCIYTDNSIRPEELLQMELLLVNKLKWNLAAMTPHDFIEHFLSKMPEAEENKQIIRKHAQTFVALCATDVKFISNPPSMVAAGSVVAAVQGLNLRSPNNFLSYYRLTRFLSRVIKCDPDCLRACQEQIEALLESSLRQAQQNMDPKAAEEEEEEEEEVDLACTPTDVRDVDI
Assay: cell-based or functional assay
Non-standard residues stand in square brackets, D forms with d. No end group written: not given here. *: point of attachment. 3‑phenoxybenzylamide = c1ccc(Oc2cccc(CN*)c2)cc1; β3hL = CC(C)C[C@H](N)CC(=O)O
Listing of recorded IC50, kinase assay by entry.
Your answer is read as µM, so omit the unit and give the number.

INSERT INTO results (binder, display_unit, quantitative_readout) VALUES
  ('Arg-Arg-[β3hL]-{3‑phenoxybenzylamide} [Arg-Arg-β-homoleucyl-3-phenoxybenzylamid]', 'µM', 60),
  ('SAKRALFGM-NH2', 'µM', 68),
  ('PAKRRLFG-NH2', 'µM', 6.7);

Inquiry: Recorded IC50, kinase assay of `SAKRNLFGM-NH2` , please.
Reply text: 146

Inquiry: Let us now turn to XRLIF (Cit at position 1 = citrulline; C-terminal amide, also called SCCP 5812) [CitRLIF]
Reply text: 179

Inquiry: Let us now turn to `HAKTRLIF-NH2`
Reply text: 25

Origin of the recorded values: patent US20150011730A1
